Tested on: Salmonella TA100
Assay: Salmonella plate-incorporation mutagenicity assay, strain TA100
Assay type: cell-based
Details: TA100 +S9, Test 3, 0.5 µg/plate; zero-dose 127/118/125
Listed here are compounds together with their documented Rev/plate.

- compound: "O[C@@H]1C=Cc2c(ccc3ccc4sccc4c23)[C@H]1O (racemic) [P[3,4-b]T 8,9-diol]"
  Rev/plate: "147/151"
- compound: "O=S1(=O)C=Cc2c1ccc1ccc3ccccc3c21 [P[3,4-b]T sulfone, Phenanthro[3,4-b]thiophene sulfone]"
  Rev/plate: "681/795"
- compound: "c1ccc2c(c1)ccc1ccc3ccccc3c12 [B[c]P, Benzo[c]phenanthrene]"
  Rev/plate: "180/190"
- compound: "c1ccc2c(c1)ccc1ccc3sccc3c12 [P[3,4-b]T, Phenanthro[3,4,-b]thiophene]"
  Rev/plate: "450/508"
- compound: "O[C@@H]1C=Cc2c(ccc3ccc4ccsc4c23)[C@H]1O (racemic) [P[4,3-b]T 8,9-diol]"
  Rev/plate: "412/353"
- compound: "O[C@@H]1C=Cc2c(ccc3ccc4ccccc4c23)[C@H]1O (racemic) [B[c]P 3,4-diol]"
  Rev/plate: "335/357"

----------
Listed here are molecules together with their documented Rev/plate.
System: Salmonella TA104
Assay: Salmonella plate-incorporation mutagenicity assay, strain TA104, with S9 mix
Type: cell-based
Conditions: TA104 +S9, Test 3, 1 µg/plate; zero-dose 402/395/336

- molecule: "c1ccc2c(c1)ccc1ccc3ccsc3c12 [P[4,3-b]T, Phenanthro[4,3-b]thiophene]"
  Rev/plate: "457/397"
- molecule: "O[C@@H]1C=Cc2c(ccc3ccc4sccc4c23)[C@H]1O (racemic) [P[3,4-b]T 8,9-diol]"
  Rev/plate: "754/785"
- molecule: "c1ccc2c(c1)ccc1ccc3ccccc3c12 [B[c]P, Benzo[c]phenanthrene]"
  Rev/plate: "636/581"
- molecule: "Nc1ccc2cc3ccccc3cc2c1 [2-aminoanthracene, reference compound]"
  Rev/plate: "1079/1097"

----------
Test system: Salmonella TA100
Assay: Salmonella plate-incorporation mutagenicity assay, strain TA100
Assay type: cell-based
Settings: TA100 +S9, Test 2, 0.5 µg/plate; zero-dose 84/78/80
assayReadout: Rev/plate

- compound: "O[C@@H]1C=Cc2c(ccc3ccc4sccc4c23)[C@H]1O (racemic) [P[3,4-b]T 8,9-diol]"
  assayReadout: "Rev/plate"
  result: "80/94"
- compound: "c1ccc2c(c1)ccc1ccc3sccc3c12 [P[3,4-b]T, Phenanthro[3,4,-b]thiophene]"
  assayReadout: "Rev/plate"
  result: "389/354"
- compound: "O[C@@H]1C=Cc2c(ccc3ccc4ccccc4c23)[C@H]1O (racemic) [B[c]P 3,4-diol]"
  assayReadout: "Rev/plate"
  result: "151/162"
- compound: "c1ccc2c(c1)ccc1ccc3ccccc3c12 [B[c]P, Benzo[c]phenanthrene]"
  assayReadout: "Rev/plate"
  result: "97/85"
- compound: "O[C@@H]1C=Cc2c(ccc3ccc4ccsc4c23)[C@H]1O (racemic) [P[4,3-b]T 8,9-diol]"
  assayReadout: "Rev/plate"
  result: "205/219"

----------
Test system: Salmonella TA98
Assay: Salmonella plate-incorporation mutagenicity assay, strain TA98, with S9 mix
Format: cell-based
Settings: TA98 +S9, Test 2, 80 µg/plate; zero-dose 43/41/30
Listed here are compounds together with their documented Rev/plate.
assayReadout: Rev/plate

- compound: "O[C@@H]1c2ccccc2-c2c(ccc3ccccc23)[C@H]1O (racemic) [B[c]P 5,6-diol]"
  assayedTarget: "Salmonella TA98"
  result: "52/35"
- compound: "O[C@@H]1C=Cc2c(ccc3ccc4sccc4c23)[C@H]1O (racemic) [P[3,4-b]T 8,9-diol]"
  assayedTarget: "Salmonella TA98"
  result: "381/323"
- compound: "O[C@@H]1c2ccccc2-c2c(ccc3sccc23)[C@H]1O (racemic) [P[3,4-b]T 6,7-diol]"
  assayedTarget: "Salmonella TA98"
  result: "146/141"
- compound: "O[C@@H]1C=Cc2c(ccc3ccc4ccsc4c23)[C@H]1O (racemic) [P[4,3-b]T 8,9-diol]"
  assayedTarget: "Salmonella TA98"
  result: "479/475"
- compound: "O[C@@H]1C=Cc2c(ccc3ccc4ccccc4c23)[C@H]1O (racemic) [B[c]P 3,4-diol]"
  assayedTarget: "Salmonella TA98"
  result: "492/423"
